ASSAY_NOTES: UV stability in ethanol by reversed phase HPLC
Format: physicochemical
EXPERIMENTAL_CONTEXT: UV irradiation, HPLC

MOLECULE: C/C=C(\C)C(=O)OC1CC(OC(C)=O)C2(C(=O)OC)COC3C2C12COC(O)(C(=O)OC)C2C(C)(C12OC1(C)C1CC2OC2OCCC21O)C3O (stereo not shown) [22,23-dihydroazadirachtin]
UV lability (in words): UV-labile
--
MOLECULE: C/C=C(\C)C(=O)O[C@H]1C[C@@H](OC(C)=O)[C@@]2(C(=O)OC)CO[C@H]3[C@@H](O)[C@@](C)([C@]45O[C@@]4(C)[C@H]4C[C@@H]5O[C@@H]5OC=C[C@@]54O)[C@H]4[C@]1(CO[C@]4(O)C(=O)OC)[C@@H]32
UV lability (in words): UV-labile
--
MOLECULE: C/C=C(\C)C(=O)OC1CC(O)C2(C(=O)OC)COC3C2C12COC(O)(C(=O)OC)C2C(C)(C12OC1(C)C1CC2OC2OC=CC21O)C3O (stereo not shown)
UV lability (in words): UV-labile

----------
Readings of Relative activity, inhibition of adult development for the listed compounds
System: Heliothis virescens
ASSAY_NOTES: Relative activity of UV-irradiated compounds in inhibiting adult development of fifth-instar larvae
Type: in vivo
EXPERIMENTAL_CONTEXT: 15 h UV exposure; relative to non-irradiated counterpart
Express your answer in %, writing the number without its unit.

The reported Relative activity, inhibition of adult development value, Heliothis virescens, for C/C=C(\C)C(=O)OC1CC(OC(C)=O)C2(C(=O)OC)COC3C2C12COC(O)(C(=O)OC)C2C(C)(C12OC1(C)C1CC2OC2OCCC21O)C3O (stereo not shown) [22,23-dihydroazadirachtin] reads 103.5

----------
System: Heliothis virescens
ASSAY_NOTES: Relative activity of UV-irradiated compounds in inhibiting pupal development of fifth-instar larvae
Assay type: in vivo
EXPERIMENTAL_CONTEXT: 30 h UV exposure; relative to non-irradiated counterpart
PROPERTY: Relative activity, inhibition of pupal development (%)
Express your answer in %, writing the number without its unit.

COMPOUND: CCC(C)C(=O)OC1CC(OC(C)=O)C2(C(=O)OC)COC3C2C12COC(O)(C(=O)OC)C2C(C)(C12OC1(C)C1CC2OC2OCCC21O)C3O (stereo not shown) [2',3',22,23-tetrahydroazadirachtin]
EXPERIMENTAL_TARGET: Heliothis virescens
RECORDED_NUMBER: 103.7

COMPOUND: C/C=C(\C)C(=O)OC1CC(OC(C)=O)C2(C(=O)OC)COC3C2C12COC(O)(C(=O)OC)C2C(C)(C12OC1(C)C1CC2OC2OCCC21O)C3O (stereo not shown) [22,23-dihydroazadirachtin]
EXPERIMENTAL_TARGET: Heliothis virescens
RECORDED_NUMBER: 104.6

COMPOUND: C/C=C(\C)C(=O)O[C@H]1C[C@@H](OC(C)=O)[C@@]2(C(=O)OC)CO[C@H]3[C@@H](O)[C@@](C)([C@]45O[C@@]4(C)[C@H]4C[C@@H]5O[C@@H]5OC=C[C@@]54O)[C@H]4[C@]1(CO[C@]4(O)C(=O)OC)[C@@H]32
EXPERIMENTAL_TARGET: Heliothis virescens
RECORDED_NUMBER: 98.9

Memo: C/C=C(\C)C(=O)OC1CC(O)C2(C(=O)OC)COC3C2C12COC(O)(C(=O)OC)C2C(C)(C12OC1(C)C1CC2OC2OC=CC21O)C3O (stereo not shown) , reported Relative activity, inhibition of pupal development: 135.0

----------
Tested on: Heliothis virescens
ASSAY_NOTES: Oral injection of fifth-instar larvae, pupal and adult development (non-irradiated compounds)
Format: in vivo
EXPERIMENTAL_CONTEXT: 1.0 microgram injected orally; % of larvae
PROPERTY: Unsuccessful Pupae-Adult (%)
Express your answer in %, writing the number without its unit.

Example results:
MOLECULE: C/C=C(\C)C(=O)OC1CC(O)C2(C(=O)OC)COC3C2C12COC(O)(C(=O)OC)C2C(C)(C12OC1(C)C1CC2OC2OC=CC21O)C3O (stereo not shown)
RECORDED_NUMBER: 2.4

MOLECULE: C/C=C(\C)C(=O)OC1CC(OC(C)=O)C2(C(=O)OC)COC3C2C12COC(O)(C(=O)OC)C2C(C)(C12OC1(C)C1CC2OC2OCCC21O)C3O (stereo not shown) [22,23-dihydroazadirachtin]
RECORDED_NUMBER: 2.3

MOLECULE: CCC(C)C(=O)OC1CC(OC(C)=O)C2(C(=O)OC)COC3C2C12COC(O)(C(=O)OC)C2C(C)(C12OC1(C)C1CC2OC2OCCC21O)C3O (stereo not shown) [2',3',22,23-tetrahydroazadirachtin]
RECORDED_NUMBER: 0.7

Switching to the query record.
Memo: C/C=C(\C)C(=O)O[C@H]1C[C@@H](OC(C)=O)[C@@]2(C(=O)OC)CO[C@H]3[C@@H](O)[C@@](C)([C@]45O[C@@]4(C)[C@H]4C[C@@H]5O[C@@H]5OC=C[C@@]54O)[C@H]4[C@]1(CO[C@]4(O)C(=O)OC)[C@@H]32 , reported Unsuccessful Pupae-Adult (%): 0

----------
Readings of Relative activity, inhibition of adult development for the listed compounds
Tested on: Heliothis virescens
ASSAY_NOTES: Relative activity of UV-irradiated compounds in inhibiting adult development of fifth-instar larvae
Type: in vivo
EXPERIMENTAL_CONTEXT: 15 h UV exposure; relative to non-irradiated counterpart
Express your answer in %, writing the number without its unit.

COMPOUND: C/C=C(\C)C(=O)O[C@H]1C[C@@H](OC(C)=O)[C@@]2(C(=O)OC)CO[C@H]3[C@@H](O)[C@@](C)([C@]45O[C@@]4(C)[C@H]4C[C@@H]5O[C@@H]5OC=C[C@@]54O)[C@H]4[C@]1(CO[C@]4(O)C(=O)OC)[C@@H]32 [azadirachtin]
UNITS_SYMBOL: %
RECORDED_NUMBER: 101.3
--
COMPOUND: CCC(C)C(=O)OC1CC(OC(C)=O)C2(C(=O)OC)COC3C2C12COC(O)(C(=O)OC)C2C(C)(C12OC1(C)C1CC2OC2OCCC21O)C3O (stereo not drawn) [2',3',22,23-tetrahydroazadirachtin]
UNITS_SYMBOL: %
RECORDED_NUMBER: 100.0

Switching to the query record.
Memo: C/C=C(\C)C(=O)OC1CC(O)C2(C(=O)OC)COC3C2C12COC(O)(C(=O)OC)C2C(C)(C12OC1(C)C1CC2OC2OC=CC21O)C3O (stereo not drawn) [3-deacetylazadirachtin] , reported Relative activity, inhibition of adult development: 103.2
